Assay: glutamate transport activators, MN-1 cells, MN-1 cell line (AID 1612);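 note: tested at 1 µM final; 0% = mean of DMSO vehicle wells on each plate; positive means more glutamate uptake than control and negative means less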
Conditions: MN-1 motor neuron cells, stronger effect = higher value
experimental.endpoint: glutamate uptake change (%)
Numbers only, in %.

CC(=O)N[C@@H](CS)C(=O)O ... -3.8
O=C1c2cccc(O)c2C(=O)c2c(O)cccc21 ... -10.8
Cn1cnc2c1c(=O)[nH]c(=O)n2C ... -19.3
CCCOc1ccc2nc(NC(=O)OC)[nH]c2c1 ... -36.6
CCCCCC(C)N (stereo not drawn) ... 3.71
CC(NCCC(c1ccccc1)c1ccccc1)c1ccccc1 (stereo not drawn) ... -8.71
CCCOc1ccccc1-c1nc2n[nH]nc2c(=O)[nH]1 ... -4.8
CC(=O)OCC1=C(C(=O)O)N2C(=O)[C@@H](NC(=O)Cc3cccs3)[C@H]2SC1 ... 0.12
CN1C(C(=O)Nc2ccccn2)=C(O)c2sccc2S1(=O)=O ... -15.9
O=C(CCBr)N1CCN(C(=O)CCBr)CC1 ... 17.8

Each molecule below has a reported value. Please supply its glutamate uptake change.
1. O=C(O)c1ccccc1C(=O)Nc1ccc(S(=O)(=O)Nc2nccs2)cc1
2. Cc1ccsc1/C=C/C1=NCCCN1C
3. COc1cc(NS(=O)(=O)c2ccc(N)cc2)ncn1

Reply text:
2.49
1.68
2.45
